System: EKVX NSCLC
experimental_protocol: NCI tumour cell line growth inhibition, 48 h
assay_readout: TGI (µM)
Use µM as the unit, but write only the number.

For EKVX NSCLC, give the measured TGI of the entry CCCCCCCCCCCCCCCCCCNC(=S)/N=C/c1c(O)c2ccccc2[nH]c1=O
29.6

Give reported TGI for O=C(C#Cc1ccccc1)C1=Cc2ccccc2OC1 (EKVX NSCLC)
6.12

Would you please give the reported TGI of COc1cc2cc(C(=O)N3CC(CCl)c4ccc(N(C)C)cc43)[nH]c2c(OC)c1OC (configuration not stated) with EKVX NSCLC?
0.558

Answer briefly: TGI recorded on EKVX NSCLC for CN(CCCNC(=O)c1nn(C)c2c1Cc1ccccc1-2)CCCNC(=O)c1nn(C)c2c1Cc1ccccc1-2
39.2

Report the value of TGI obtained on EKVX NSCLC for N#Cc1cc(Sc2ccc(N)c(C#N)c2)ccc1N .
50.5

Send back EKVX NSCLC TGI of ClCc1ccccc1Cn1cnc2c(Cl)ncnc21 only.
11

Recall the reported TGI of CCCCSC1=N/C(=C\c2ccc(N(C)C)cc2)C(=O)N1 on EKVX NSCLC and write it down.
76.5

Write TGI of CCCCc1c2cnccc2c(CCCC)c2c1[nH]c1ccccc12 ; system used: EKVX NSCLC
36

----------
Tested on: RPMI-8226 leukemia
experimental_protocol: NCI tumour cell line growth inhibition, 48 h
assay_readout: TGI

Read off the recorded TGI for COc1cc(OC)c(OC)cc1/C=C/c1cnnc2ccccc12
> 10 µM

Determine from records and report TGI for CC1CC(C)C2OC2(C)C[C@H](C)C(=O)NC(C)C(=O)N(C)[C@H](Cc2c(Br)[nH]c3ccccc23)C(=O)N[C@@H](c2ccc(O)cc2)CC(=O)O1 (some centres not stated)
5.43 µM

Give the measured TGI for CCn1c2c(c3ccccc31)[C@@H](c1ccc(Cl)cc1)CC1C(=O)N(c3ccccc3)C(=O)C21 (some centres not stated)
> 100 µM

Give the reported value of TGI for this record: COC(=O)/C(C#N)=C(\N)C(Cl)(Cl)Cl
6.75 µM

Look up and state reported TGI for Cc1c(Cl)cccc1N=NC(=O)NNc1cccc(Cl)c1C
> 100 µM

Item CC(=O)O[C@H]1C(=O)[C@@]2(C)[C@H]([C@H](OC(=O)c3ccccc3)[C@]3(O)C[C@H](OC(=O)[C@H](O)[C@@H](NC(=O)c4ccccc4)c4cccc(N(C)C)c4)C(C)=C1C3(C)C)[C@]1(OC(C)=O)CO[C@@H]1C[C@@H]2O : provide TGI
0.236 µM

Indicate the recorded TGI value for this molecule: C#C[C@@]1(O)CCCC2=CC3(CC[C@]21C)SCCS3
> 100 µM

Using known records, supply TGI for C=C1C(=O)O[C@H]2[C@H]1CC/C(Cn1cc(-c3ccc(F)cc3)nn1)=C\CC[C@@]1(C)O[C@@H]21
4.92 µM

Note TGI for the molecule shown: NC(=O)CC(N)C(=O)NC(Cc1ccccc1)C(=O)NC(Cc1ccccc1)NC(=O)C(Cc1c[nH]c2ccccc12)C(=O)O (configuration not stated)
> 100 µM

Give reported TGI value for NCCCNOCCCN
> 100 µM

Query TGI for O=C(c1cccnc1)N1N=C(c2ccccc2)CC1(O)c1cc(F)c(Cl)cc1Cl (configuration not stated)
55.6 µM

Return reported TGI. Input molecule: COc1cc(C2C3=C(CCCC3=O)N(c3ccc(C)cc3)C3=C2C(=O)CCC3)c([N+](=O)[O-])cc1OC
> 100 µM

Annotate the molecule CCOC(=O)C1=C(C)N(NC(N)=O)C2(N)N(NC(N)=O)C(C)=C(C(=O)OCC)C12C(=O)OCC (configuration not stated) with its measured TGI.
> 100 µM

Please supply the value of reported TGI for the item O=C1CNC(=O)c2[nH]cnc2N1
> 100 µM

Report TGI for C=CCOC(=O)N1c2ccc(O)cc2[C@@]23O[C@@]24[C@@H]1C#C/C=C\C#C[C@]3(O)C(OC)(OC)C[C@@H]4C
91.5 µM

Tell me measured TGI for O=C(c1ccccc1)c1c(C(F)(F)F)n([O-])c2cc(C(F)(F)F)ccc2[n+]1=O please.
3.75 µM

Quickly give me recorded TGI for c1ccc(SC23C4C5C6C4C2C6C53)nc1 (configuration not stated)
> 54 µM

Report TGI for Cc1cccc(C)c1N1C(=O)C(=O)C(c2nc3ccccc3s2)/C(=N/NC(=O)c2ccccc2O)C1=O (configuration not stated)
> 69.2 µM

Return value of TGI for input CC1(C)OC(=O)C(C#N)=C1C[n+]1ccccc1 , no commentary.
> 10 µM

Using the record for Nc1ccc2ccc(N3CCNCC3)nc2n1 , state its measured TGI.
> 100 µM

Supply recorded TGI for CCCCCCCC/C=C1\CCC(CN2CCOCC2)C1=O (configuration not stated) here.
4.19 µM

Fill in TGI for record c1ccc(Nc2nn3c(CCCCCCCCc4nnc5sc(Nc6ccccc6)nn45)nnc3s2)cc1
> 100 µM

Please supply the value of reported TGI for the item COC(=O)c1c2c(c(C)[n+]([O-])c1C)C(=O)C=C(NCc1cccc(Cl)c1)C2=O
4.28 µM

Answer with the recorded TGI of C/C(CC(=O)Nc1ccccc1C)=N/NS(=O)(=O)c1ccc(C)cc1 only.
> 100 µM

Determine its reported TGI: CCCN(CCC)C(=O)c1nc(N)nc(-c2ccc(OC)cc2)c1-c1ccc(OC)cc1
> 100 µM

Give the measured TGI for O=c1oc2cc(OC/C(=N/O)c3ccc(F)cc3)ccc2c2ccccc12
> 100 µM

Give recorded TGI. C=CCN1/C(=C2\SC(=S)N(c3ccc(C)cc3)C2=O)Sc2c1ncn(C)c2=O
> 100 µM

Give TGI for the following molecule: C[C@]12CC[C@H]3[C@@H](CC4SC(N)=NC45C/C(=N/NC(N)=O)CC[C@]35C)[C@@H]1CCC2=O (some centres not stated)
1.37 µM

Let me know recorded TGI for Cc1cc2c(cc1C)C(=O)C1(C2)Cc2cc3c(cc2C1=O)CCC3 (configuration not stated) , thanks.
> 100 µM

Assign TGI to the following record: Cc1c(Cl)cccc1NC(=O)/C=C/c1ccccc1
> 100 µM

Quote TGI reported for COc1c(Br)cc2ccccc2c1-c1c(OC)c(Br)cc2ccccc12 please.
> 100 µM

Quickly give me recorded TGI for NC(N)=NC(N)=NCCCc1ccco1
101 µM

----------
Exercise: for every item that follows, state its recorded TGI.
Tested on: CCRF-CEM leukemia
experimental_protocol: NCI tumour cell line growth inhibition, 48 h

Recall and state the measured TGI for Nc1nc(SCc2ccccc2Cl)cc(C(=O)O)n1 .
> 100 µM

Hello, please tell me recorded TGI for this one: CCCCCCCC/C=C1\CCC(CN2CCOCC2)C1=O (centres undefined)
10.9 µM

Please indicate TGI recorded for O=c1[nH]nc(Cc2ccccc2)n1/N=C/c1cccnc1
> 100 µM

Return TGI (reported value) for this compound: CCCCSC1=N/C(=C\c2ccc(N(C)C)cc2)C(=O)N1
> 100 µM

----------
Test system: SN12C renal
experimental_protocol: NCI tumour cell line growth inhibition, 48 h
assay_readout: TGI

Provide measured TGI value, entry: CCCCc1ccc(Nc2nc(Cl)c3ccn(C4CC(Oc5ccc(C)cc5)C(COc5ccc(C)cc5)O4)c3n2)cc1 (centres undefined)
> 46.4 µM

Supply measured TGI of Cc1cccc(C)c1N1C(=O)C(=O)C(c2nc3ccccc3s2)/C(=N/NC(=O)c2ccccc2O)C1=O (centres undefined) in your reply.
> 100 µM

Let me know recorded TGI for c1ccc(SC23C4C5C6C4C2C6C53)nc1 (centres undefined) , thanks.
> 100 µM

Query TGI for COC(=O)C(=O)C(C(=O)C(=O)Nc1ccccc1OC)c1nc2ccc([N+](=O)[O-])cc2[nH]c1=O (centres undefined)
> 100 µM

----------
Test system: COLO 205 colon
experimental_protocol: NCI tumour cell line growth inhibition, 48 h
assay_readout: TGI

For the compound O=C(c1cccs1)N1CCCN(C(=O)c2cccs2)C1=S , give its reported TGI.
> 100 µM

Item Cc1cc(C)c(C(=O)O)c(SSc2cc(C)cc(C)c2C(=O)O)c1 : provide TGI
> 100 µM

Note TGI for the compound shown: Cc1ccc(NC(=O)/C(Cc2cc(=O)oc3cc(O)ccc23)=N\NC(C)(C)C)cc1C
> 100 µM

----------
System: U251 CNS
experimental_protocol: NCI tumour cell line growth inhibition, 48 h
I'd be grateful if you could share measured TGI for these entries.

Specify TGI for Cc1ccc(S(=O)(=O)C2=c3nc4ccccc4cc3=C3C(=O)c4ccccc4C(=O)C32)cc1 (centres undefined) and stop.
> 100 µM

Tell me TGI reported for COC(=O)c1cn(CC(O)CCl)nn1 (centres undefined)
> 100 µM

Supply TGI value. Item: CO/N=C(\C([O-])=N\[n+]1cnn(CC(=O)OC(C)(C)C)c1)c1csc(NC(c2ccccc2)(c2ccccc2)c2ccccc2)n1
> 10 µM

Annotate the molecule C[n+]1c2ccccc2nc2ccccc21 with its measured TGI.
3.09 µM

Kindly indicate its recorded TGI. Item: COC(=O)C(Cc1ccc(N(C)C)cc1)(NC(=O)c1ccccc1)P(=O)(OC)OC (centres undefined)
> 100 µM

Answer with the recorded TGI for the molecule listed here: CCCCCC[C@@H](C)NC(=O)c1ccc(Nc2nc3ccccc3c3occc23)cc1
> 100 µM

Give a short answer stating reported TGI for CC(C)C(=O)c1c(C(F)(F)F)n([O-])c2cc(F)c(F)cc2[n+]1=O .
0.43 µM

Could you please provide reported TGI for CN(C)CCNC(=O)c1cccc2nc3c(C(=O)NCCN(C)C)cccc3nc12 ? Thanks!
11.2 µM

Name the recorded TGI of the molecule listed here: O=C(Nc1ccccc1Cl)c1ccc([N+](=O)[O-])cc1
> 100 µM

Give recorded TGI. CCC(CC)(CO)CNc1cc(Cl)nc(N)n1
> 100 µM

Find the measured TGI of c1ccc(SC23C4C5C6C4C2C6C53)nc1 (centres undefined) and report it.
> 100 µM

Quote TGI reported for Cc1ccc(-c2cc[n+]3c(n2)oc2ccccc23)cc1 please.
> 100 µM

Please give measured TGI of the following entry: C=CCOC(OCC=C)/C(Br)=C/C
> 100 µM

Give the reported TGI for this molecule. O=S(=O)(N=NC=C1c2ccccc2N(O)c2ccccc21)c1ccc(Cl)cc1
> 100 µM
